Biological target: Heme oxygenase 2 (Rattus norvegicus)
Sequence (P23711 whole entry): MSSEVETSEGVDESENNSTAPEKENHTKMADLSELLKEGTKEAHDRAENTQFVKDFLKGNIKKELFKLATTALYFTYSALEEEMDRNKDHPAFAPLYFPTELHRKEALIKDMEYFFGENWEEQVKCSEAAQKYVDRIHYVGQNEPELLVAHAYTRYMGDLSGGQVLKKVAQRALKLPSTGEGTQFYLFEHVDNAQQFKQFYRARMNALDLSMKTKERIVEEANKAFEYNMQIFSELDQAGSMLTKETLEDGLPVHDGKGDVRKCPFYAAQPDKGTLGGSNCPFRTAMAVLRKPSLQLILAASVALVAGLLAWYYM
pIC50: −log10 of the molar value.

[
  {
    "compound": "Clc1ccc(Cn2c(CC3CC4CCC3C4)nc3ccccc32)cc1 (stereo unspecified)",
    "pIC50": 5.37
  }
]

====

Biological target: Heme oxygenase 1 (Rattus norvegicus, UniProt P06762)
Assay: Inhibition of HO-1 in Sprague-Dawley rat spleen microsomes using NADPH as substrate preincubated for 10 mins followed by substrate addition and measured after 15 mins by GC analysis
pIC50: −log10 of the molar value.
endpoint.label: pIC50

[
  {
    "molecule": "Clc1ccc(Cn2c(CN3CCOCC3)nc3ccccc32)cc1",
    "endpoint.label": "pIC50",
    "observed.result": "< 4.00"
  },
  {
    "molecule": "Brc1ccc(Cn2c(CN3CCOCC3)nc3ccccc32)cc1",
    "endpoint.label": "pIC50",
    "observed.result": "< 4.00"
  },
  {
    "molecule": "Brc1ccc(Cn2c(CC3CCCCC3)nc3ccccc32)cc1",
    "endpoint.label": "pIC50",
    "observed.result": "< 4.00"
  },
  {
    "molecule": "Brc1ccc(Cn2c(CC3CC4CCC3C4)nc3ccccc32)cc1 (stereo not drawn)",
    "endpoint.label": "pIC50",
    "observed.result": "< 4.00"
  },
  {
    "molecule": "Clc1ccc(Cn2c(CC3CCCC3)nc3ccccc32)cc1",
    "endpoint.label": "pIC50",
    "observed.result": 4.49
  },
  {
    "molecule": "Clc1ccc(Cn2c(CC3CC4CCC3C4)nc3ccccc32)cc1 (stereo not drawn)",
    "endpoint.label": "pIC50",
    "observed.result": "< 4.00"
  },
  {
    "molecule": "Clc1ccc(Cn2c(CC3CCCCC3)nc3ccccc32)cc1",
    "endpoint.label": "pIC50",
    "observed.result": "< 4.00"
  },
  {
    "molecule": "Brc1ccc(Cn2c(Cn3ccnc3)nc3ccccc32)cc1",
    "endpoint.label": "pIC50",
    "observed.result": 5.57
  }
]

====

Parameter pIC50: see the listing below.
Target: Heme oxygenase 1 (Rattus norvegicus)
Sequence (P06762 whole entry): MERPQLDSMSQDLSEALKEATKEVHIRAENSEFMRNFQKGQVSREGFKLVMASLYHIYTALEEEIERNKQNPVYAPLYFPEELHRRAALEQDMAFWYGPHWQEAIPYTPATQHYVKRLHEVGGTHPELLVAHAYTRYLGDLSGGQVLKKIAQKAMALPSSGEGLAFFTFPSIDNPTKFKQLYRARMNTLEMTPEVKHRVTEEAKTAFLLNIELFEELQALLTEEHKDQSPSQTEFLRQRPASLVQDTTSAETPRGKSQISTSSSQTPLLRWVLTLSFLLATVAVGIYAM
Test: Inhibition of HO-1 in Sprague-Dawley rat spleen microsomes using NADPH as substrate incubated for 60 mins by spectrometry based assay
pIC50: −log10 of the molar value.
endpoint.label: pIC50

[
  {
    "compound": "O=C(Cn1ccnc1)c1ccc(Br)cc1",
    "endpoint.label": "pIC50",
    "observed.result": 5.60
  },
  {
    "compound": "c1ccc(OCCn2ccnc2)cc1",
    "endpoint.label": "pIC50",
    "observed.result": 4.55
  },
  {
    "compound": "O=[N+]([O-])c1ccc(C(O)Cn2ccnc2)cc1 (stereo not given)",
    "endpoint.label": "pIC50",
    "observed.result": 5.00
  },
  {
    "compound": "COc1ccc2[nH]c(=O)c(-c3nc(-c4ccccc4)c(-c4ccccc4)[nH]3)cc2c1",
    "endpoint.label": "pIC50",
    "observed.result": 5.04
  },
  {
    "compound": "Brc1ccc(OCCCCCCn2ccnc2)cc1",
    "endpoint.label": "pIC50",
    "observed.result": 5.00
  }
]
